Tested on: Pseudomonas aeruginosa
Assay: In vitro antibacterial activity against Pseudomonas aeruginosa E-2
Assay type: functional
READOUT NAME: MIC (µg/mL)

CN(C)CC[n+]1ccc(SCC2=C(C(=O)[O-])N3C(=O)[C@@H]([N-]C(=O)/C(=N\OCCSc4nnc(-c5cc(O)c(O)cn5)o4)c4csc(N)n4)[C@H]3SC2)cc1.[Na+]	0.78
Nc1nc(/C(=N/OCCSc2nnc(-c3cc(O)c(O)cn3)o2)C(=O)N[C@@H]2C(=O)N3C(C(=O)[O-])=C(CSc4nnc(N)s4)CS[C@H]23)cs1.[Na+]	0.2
Cc1cc(SCC2=C(C(=O)[O-])N3C(=O)[C@@H](NC(=O)/C(=N\OCCSc4nnc(-c5cc(O)c(O)cn5)o4)c4csc(N)n4)[C@H]3SC2)n2nc(CO)nc2n1.[Na+]	0.2
CO/N=C(\C(=O)N[C@@H]1C(=O)N2C(C(=O)O)=C(COC(C)=O)CS[C@H]12)c1csc(N)n1	25
Nc1nc(/C(=N/OCCSc2nnc(-c3cc(O)c(O)cn3)o2)C(=O)N[C@@H]2C(=O)N3C(C(=O)[O-])=C(CSc4cc[n+](CC(=O)[O-])cc4)CS[C@H]23)cs1.[Na+]	1.56
Nc1nc(/C(=N/OCCSc2nnc(-c3cc(O)c(O)cn3)o2)C(=O)N[C@@H]2C(=O)N3C(C(=O)[O-])=C(CSc4cnns4)CS[C@H]23)cs1.[Na+]	0.78

----------
Tested on: Pseudomonas aeruginosa
Assay: In vitro antibacterial activity against Pseudomonas aeruginosa IFO12689
Format: functional
MIC values for the compounds below.
READOUT NAME: MIC (µg/mL)

Cc1cc(SCC2=C(C(=O)[O-])N3C(=O)[C@@H](NC(=O)/C(=N\OCCSc4nnc(-c5cc(O)c(O)cn5)o4)c4csc(N)n4)[C@H]3SC2)n2nc(CO)nc2n1.[Na+]	0.39
Nc1nc(/C(=N/OCCSc2nnc(-c3cc(O)c(O)cn3)o2)C(=O)[N-][C@@H]2C(=O)N3C(C(=O)[O-])=C(C[n+]4ccccc4)CS[C@H]23)cs1.[Na+]	0.78
Nc1nc(/C(=N/OCCSc2nnc(-c3cc(O)c(O)cn3)o2)C(=O)N[C@@H]2C(=O)N3C(C(=O)[O-])=C(CSc4ccccn4)CS[C@H]23)cs1.[Na+]	0.039
Nc1nc(/C(=N/OCCSc2nnc(-c3cc(O)c(O)cn3)o2)C(=O)[N-][C@@H]2C(=O)N3C(C(=O)[O-])=C(C[n+]4ccc(SCCO)cc4)CS[C@H]23)cs1.[Na+]	0.78
CO/N=C(\C(=O)N[C@@H]1C(=O)N2C(C(=O)O)=C(COC(C)=O)CS[C@H]12)c1csc(N)n1	25

----------
Test system: Escherichia coli
Experiment: In vitro antibacterial activity against Escherichia coli ML4707
Assay type: functional
READOUT NAME: MIC

Nc1nc(/C(=N/OCCSc2nnc(-c3cc(O)c(O)cn3)o2)C(=O)N[C@@H]2C(=O)N3C(C(=O)[O-])=C(CSc4nnc(N)s4)CS[C@H]23)cs1.[Na+]	≤ 0.0063 µg/mL
Nc1nc(/C(=N/OCCSc2nnc(-c3cc(O)c(O)cn3)o2)C(=O)[N-][C@@H]2C(=O)N3C(C(=O)[O-])=C(CSc4cc[n+](CCO)cc4)CS[C@H]23)cs1.[Na+]	≤ 0.0063 µg/mL
Nc1nc(/C(=N/OCCSc2nnc(-c3cc(O)c(O)cn3)o2)C(=O)N[C@@H]2C(=O)N3C(C(=O)[O-])=C(CSc4cc[n+](CC(=O)[O-])cc4)CS[C@H]23)cs1.[Na+]	≤ 0.0063 µg/mL
Nc1nc(/C(=N/OCCSc2nnc(-c3cc(O)c(O)cn3)o2)C(=O)N[C@@H]2C(=O)N3C(C(=O)[O-])=C(C[n+]4ccc(C(=O)[O-])cc4)CS[C@H]23)cs1.[Na+]	0.0125 µg/mL
Nc1nc(/C(=N/OCCSc2nnc(-c3cc(O)c(O)cn3)o2)C(=O)[N-][C@@H]2C(=O)N3C(C(=O)[O-])=C(C[n+]4ccccc4)CS[C@H]23)cs1.[Na+]	0.025 µg/mL

----------
Tested on: Mus musculus
Assay: Tested in vivo for the therapeutic efficacy against systemic infection caused by Staphylococcus aureus Smith in mice at a challenge dose of 5*10e6 (cfu/mouse) + 5%mucin
Assay type: functional
READOUT NAME: ED50

Nc1nc(/C(=N/OCCSc2nnc(-c3cc(O)c(O)cn3)o2)C(=O)[N-][C@@H]2C(=O)N3C(C(=O)[O-])=C(CSc4cc[n+](CCO)cc4)CS[C@H]23)cs1.[Na+]	< 0.3 mg/kg
Nc1nc(/C(=N/OCCSc2nnc(-c3cc(O)c(O)cn3)o2)C(=O)N[C@@H]2C(=O)N3C(C(=O)[O-])=C(CSc4nnc(N)s4)CS[C@H]23)cs1.[Na+]	> 20 mg/kg
CC[n+]1ccc(SCC2=C(C(=O)[O-])N3C(=O)[C@@H]([N-]C(=O)/C(=N\OCCSc4nnc(-c5cc(O)c(O)cn5)o4)c4csc(N)n4)[C@H]3SC2)cc1.[Na+]	< 0.6 mg/kg

----------
System: Escherichia coli
Experiment: In vitro antibacterial activity against Escherichia coli ML4707
Type: functional
MIC values for the compounds below.
READOUT NAME: MIC

Nc1nc(/C(=N/OCCSc2nnc(-c3cc(O)c(O)cn3)o2)C(=O)N[C@@H]2C(=O)N3C(C(=O)[O-])=C(CSc4cnns4)CS[C@H]23)cs1.[Na+]	≤ 6.3 ng/mL
Nc1nc(/C(=N/OCCSc2nnc(-c3cc(O)c(O)cn3)o2)C(=O)N[C@@H]2C(=O)N3C(C(=O)[O-])=C(CSc4ccccn4)CS[C@H]23)cs1.[Na+]	≤ 6.3 ng/mL
Cc1cc(SCC2=C(C(=O)[O-])N3C(=O)[C@@H](NC(=O)/C(=N\OCCSc4nnc(-c5cc(O)c(O)cn5)o4)c4csc(N)n4)[C@H]3SC2)n2nc(CO)nc2n1.[Na+]	< 6.3 ng/mL
Nc1nc(/C(=N/OCCSc2nnc(-c3cc(O)c(O)cn3)o2)C(=O)N[C@@H]2C(=O)N3C(C(=O)[O-])=C(CSc4nnc(-c5ccncc5)o4)CS[C@H]23)cs1.[Na+]	≤ 6.3 ng/mL
CC[n+]1ccc(SCC2=C(C(=O)[O-])N3C(=O)[C@@H]([N-]C(=O)/C(=N\OCCSc4nnc(-c5cc(O)c(O)cn5)o4)c4csc(N)n4)[C@H]3SC2)cc1.[Na+]	≤ 6.3 ng/mL

----------
System: Pseudomonas aeruginosa
Test: In vitro antibacterial activity against Pseudomonas aeruginosa IFO12689
Format: functional
MIC values for the compounds below.
READOUT NAME: MIC (µg/mL)

Nc1nc(/C(=N/OCCSc2nnc(-c3cc(O)c(O)cn3)o2)C(=O)N[C@@H]2C(=O)N3C(C(=O)[O-])=C(CSc4cc[n+](CC(=O)[O-])cc4)CS[C@H]23)cs1.[Na+]	0.39
Nc1nc(/C(=N/OCCSc2nnc(-c3cc(O)c(O)cn3)o2)C(=O)N[C@@H]2C(=O)N3C(C(=O)[O-])=C(CSc4nnc(-c5ccncc5)o4)CS[C@H]23)cs1.[Na+]	0.39
Nc1nc(/C(=N/OCCSc2nnc(-c3cc(O)c(O)cn3)o2)C(=O)N[C@@H]2C(=O)N3C(C(=O)[O-])=C(C[n+]4ccc(C(=O)[O-])cc4)CS[C@H]23)cs1.[Na+]	0.39
